- assay target: Savinase (Lederbergia lenta, UniProt P29600)
- Sequence (P29600 whole entry): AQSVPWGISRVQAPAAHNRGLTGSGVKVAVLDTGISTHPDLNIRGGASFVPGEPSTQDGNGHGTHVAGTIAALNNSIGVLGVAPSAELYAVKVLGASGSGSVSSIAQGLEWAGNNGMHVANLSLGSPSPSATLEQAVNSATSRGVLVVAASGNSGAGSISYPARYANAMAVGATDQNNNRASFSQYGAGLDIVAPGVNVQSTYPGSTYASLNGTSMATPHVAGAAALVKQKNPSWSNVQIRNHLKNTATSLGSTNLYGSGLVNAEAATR
Residues, ends and D or L forms follow the SMILES beside them. *: point of attachment. Cbz = O=C(OCc1ccccc1)*
assay readout: Ki (nM)

{"compound": "C[C@H](NC(=O)CNC(=O)OCc1ccccc1)C(=O)N[C@H](C=O)Cc1ccc(O)cc1 [Z-GAY-H] (Cbz-Gly-Ala-Tyr-aldehyde)", "measured result": 7.4}

The reported measurements were obtained from patent US20120149625A1.
